Source listed as patent US12448369B2.

Tested on: Porcine atria myofibrils (atrial myosin ATPase)
method: Myofibril ATPase assay, porcine atria myofibrils
Type: biochemical
test context: Y75 value (no ‡ mark); porcine atria myofibrils
// returns false (0) unless Atrial EC25 is strictly below 2 µM, in which case true (1)

A selection of reference data follows.
compound: Cc1c(O)ccc2[nH]c(=O)c(CC(=O)N[C@H](C)c3ncc(F)cc3F)cc12 (single isomer, unassigned)
classification: false (0)
//
compound: C[C@@H](NC(=O)Cc1c(O)c2cc(F)c(F)cc2[nH]c1=O)c1ccc(C#N)cc1F
classification: true (1)
//
compound: Cc1c(CC(=O)N[C@@H](C)c2ccc(F)cn2)c(=O)[nH]c2cccc(F)c12
classification: true (1)
//
compound: C[C@H](NC(=O)Cc1c(C2CC2)c2cc(C#N)ccc2[nH]c1=O)c1ncc(C#N)cc1F
classification: false (0)
//
compound: Cc1c(CC(=O)N[C@@H](C)c2ccc(C#N)nn2)c(=O)[nH]c2cc(F)c(F)cc12
classification: true (1)
//
compound: C[C@H](NC(=O)[C@@H](C)c1cc2cc(F)ccc2[nH]c1=O)c1ccc(F)cc1F (single isomer, unassigned)
classification: false (0)

Turning to the following compound.
I wonder whether C[C@H](NC(=O)Cc1cc2cc(C#N)ccc2[nH]c1=O)c1ccc(F)cc1F has Atrial EC25 below 2 µM. Can you tell?
false (0)
